Target: Nuclear receptor ROR-gamma (Homo sapiens, UniProt P51449)
Sequence (P51449 whole entry): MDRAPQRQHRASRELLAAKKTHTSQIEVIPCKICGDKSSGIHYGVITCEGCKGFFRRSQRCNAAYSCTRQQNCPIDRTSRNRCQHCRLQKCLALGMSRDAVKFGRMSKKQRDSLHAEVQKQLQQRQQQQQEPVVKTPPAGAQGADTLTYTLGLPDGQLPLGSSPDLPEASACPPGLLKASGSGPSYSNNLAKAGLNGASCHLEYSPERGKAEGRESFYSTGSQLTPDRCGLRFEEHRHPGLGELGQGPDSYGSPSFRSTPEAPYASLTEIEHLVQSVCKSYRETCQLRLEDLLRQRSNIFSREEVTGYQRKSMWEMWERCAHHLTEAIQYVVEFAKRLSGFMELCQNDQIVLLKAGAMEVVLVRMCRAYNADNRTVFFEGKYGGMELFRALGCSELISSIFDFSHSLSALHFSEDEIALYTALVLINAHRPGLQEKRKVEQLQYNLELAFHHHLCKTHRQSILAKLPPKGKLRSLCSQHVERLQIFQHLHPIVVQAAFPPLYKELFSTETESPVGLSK
Experiment: Inverse agonist activity at human RoRc in human skin model assessed as suppression of IL-17F level relative to control
Assay type: functional
measured.parameter: EC50

Sample records with EC50:
>  <substance.smiles>
CC(=O)Nc1ccc2c(c1)CCCN2Cc1ccc(C(O)(C(F)(F)F)C(F)(F)F)cc1

>  <EC50>
< 10 µM

$$$$
>  <substance.smiles>
NC(=O)c1ccc2c(c1)CCN2Cc1ccc(C(O)(C(F)(F)F)C(F)(F)F)cc1

>  <EC50>
< 10 µM

$$$$

Let us examine a further case.
Look up EC50: "OC(c1ccc(CN2CCCc3cc(-c4cn[nH]c4)ccc32)cc1)(C(F)(F)F)C(F)(F)F"
< 10 µM

The values you see were collected from ChEMBL document CHEMBL3351629.
